Here, each record is paired with measured ECL signal data.
Target: T1, DR4G96: Human HLA-DRA1*01:02/DRB1*01:01 ECD with CLIP peptide (human)
T1 construct: also called DRB1*01:01 CLIP
Experiment: MSD ECL; antigen coated; protocol of Example 3
Reported endpoint: ECL signal (ECL)

Binder | Reported endpoint | Value measured
DR4B5 (antibody, V domains shown, also called apolizumab (1D10) re-engineered as IgG2sigma) VH: QVQLQESGPGLVKPSETLSLTCTVSGFSLTNYGVHWVRQSPGKGLEWIGVKWSGGSTEYNAAFISRLTISKDTSKNQVSLKLNSLTAADTAVYYCARNDRYAMDYWGQGTLVTVSS VL: DIQMTQSPSSLSASVGDRVTITCRASENIYSYLAWYQQKPGKAPKLLVSNAKTLAEGVPSRFSGSGSGKQFTLTISSLQPEDFATYYCQHHYGNSYPFGQGTKLEIK | ECL signal | 20600
DR4B98 (antibody, human IgG2, kappa, V domains shown, also called VH DR4H50 / VL PH9L3) VH: QVQLVQSGAEVKKPGSSVKVSCKASGGTFKSYYIHWVRQAPGQGLEWMGGIAPIYGTAYYAQKFQGRVTITADESTSTAYMELSSLRSEDTAVYYCARDASWARAYGFDYWGQGTLVTVSS VL: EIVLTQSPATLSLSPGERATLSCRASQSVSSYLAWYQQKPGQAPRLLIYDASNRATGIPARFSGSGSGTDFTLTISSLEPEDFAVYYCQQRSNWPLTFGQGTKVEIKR | ECL signal | 9450
DR4B6 (antibody, V domains shown, also called L243 re-engineered as IgG2sigma) VH: QIQLVQSGPELKKPGETVKISCKASGFTFTNYGMNWVKQAPGKGLKWMGWINTYTREPTYADDFKGRFAFSLETSASTAYLQINNLKNEDTAKYFCARDITAVVPTGFDYWGQGTTLTVSS VL: DIQMTQSPASLSVSVGETVTITCRASENIYSNLAWYRQKQGKSPQLLVFAASNLADGVPSRFSGSGSGTQYSLKINSLQSEDFGDYYCQHFWTTPWAFGGGTNLEIK | ECL signal | 627000
DR4B127 (antibody, human IgG2, kappa, V domains shown, also called VH DR4H7 / VL PH9L3) VH: QVQLVQSGAEVKKPGSSVKVSCKASGGTFKSYYIHWVRQAPGQGLEWMGGIRPISGNAEYAQKFQGRVTITADESTSTAYMELSSLRSEDTAVYYCARDASYYRNYGFDYWGQGTLVTVSS VL: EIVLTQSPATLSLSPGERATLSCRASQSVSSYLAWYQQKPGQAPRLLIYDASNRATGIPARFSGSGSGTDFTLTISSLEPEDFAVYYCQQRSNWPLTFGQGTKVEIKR | ECL signal | 803000

Provenance of the data: patent US20180355043A1
